tested on: A498; experiment: NCI tumour cell line growth inhibition, 48 h
Active and inactive are the calls of the source. Rule as the data show it: active = GI50 up to about 1.1 µM and inactive = higher. *1 amine or outer side, *2 acyl side, *3 side chain or, on linkers, in order; H or OH if unused. Where a SMILES comes first, the peptide text is derived from it. Bridges are numbered along the chain shown (N, C = ends). Roman numbers before positions name the chains, in order. [ ]: non-standard residue; d: D form. Actinocin(1to9) = Cc1c2oc3c(C)ccc(C(=O)[*:2])c3nc-2c(C(=O)[*:1])c(N)c1=O; NMeV = CN[CH](C(=O)O)C(C)C; Sar = CNCC(=O)O
Thanks in advance; please answer with one of these: active, inactive

Below, 10 compounds whose answers are already recorded.
COc1ccc(CC2NC(=O)C(NC(=O)c3c4nc5c(C(=O)NC6C(=O)NC(Cc7ccc(OC)cc7)C(=O)N7CCCC7C(=O)N(C)CC(=O)N(C)C(C(C)C)C(=O)OC6C)ccc(C)c5oc-4c(C)c(=O)c3N)C(C)OC(=O)C(C(C)C)N(C)C(=O)CN(C)C(=O)C3CCCN3C2=O)cc1 (centres undefined) (I: TY(Me)P[Sar][NMeV] / II: TY(Me)P[Sar][NMeV]; ester I:1-I:C, II:1-II:C; linker I:N-II:N via Actinocin(1to9); configuration not given here) = active
CCOP(=O)(OCC)/C(C#N)=C/c1cc(O)ccc1O = inactive
Cc1c(C)c2ccc3oc4ccccc4c3c2oc1=O = inactive
COC(=O)c1c(O)ccc2c1c1c(n2Cc2ccccn2)C(=O)c2ccccc2C1=O = inactive
CO/C=C(/C(=O)OC)c1ccccc1[C@@H]1CC1c1cccc(F)c1 (some centres undefined) = inactive
CC1=C2C3OC(=O)C(C)C3C(O)C[C@@]2(C)C(=O)CC1 (some centres undefined) = inactive
COC1CC(=O)C2C(=O)N(c3ccccc3)C(=O)C23C(C(=O)c2ccccc2)=C(C)NC13O (centres undefined) = inactive
Nc1ccc(C(=O)Nn2c(-c3ccccc3)nc3ccccc3c2=O)cc1 = inactive
CN(C)c1ccc2c3c(c(=O)oc2c1)CCC3 = inactive
CCOC(=O)/C=C(\C(=O)OCC)n1cc(C)c(=O)n(Cc2cnnn2CCCCOC(C)=O)c1=O = inactive

Lookup: Any idea what this test logged for CC1=CC(=O)NCCN1C ?
Found: inactive

Lookup: Lab log entry: CC(C)(Oc1ccc2c(=O)cc(-c3ccc(Cl)cc3)oc2c1)C(=O)Nc1c(Cl)cccc1Cl — outcome as called in the assay?
Found: inactive

Lookup: Please share the test call associated with O=C(O/N=C1/CCC/C1=C\c1ccccc1)c1ccccc1 .
Found: inactive

Lookup: In this assay, the call recorded for COc1ccc(CCC2NCCc3cc(OC)c(OC)cc32)cc1 (centres undefined) was what?
Found: inactive

* * *

system: HL-60; assay: NCI tumour cell line growth inhibition, 48 h
Activity calls are given as the source filed them. No stated cut-off is given here; in the data, active = GI50 up to about 1.1 µM and inactive = higher.
Select the matching outcome among active, inactive

O=C1C=CC(=O)c2c(O)nc(CBr)nc21 = inactive

Lookup: Any idea what this test logged for O=C(O)c1ccccc1C1c2ccc(Cl)cc2Oc2cc(Cl)ccc21 ?
Found: inactive

Lookup: Returns: the outcome recorded for CC1=C2c3c(C)ccc4ccc(C)c(c34)C2(O)C(C)C1=O (stereo not drawn) in this assay.
Found: inactive

Lookup: Returns: the outcome recorded for O=C(c1cccs1)N(C(=S)N1CCN(c2ccccc2)CC1)c1ccccc1 in this assay.
Found: inactive

Lookup: Outcome logged for COc1ccc(C(=O)O)c(Cc2cccc3ccccc23)c1 in this assay:
Found: inactive

Lookup: # outcome recorded in this test, key = COC(=O)[C@@]1(Cc2ccc(OC(C)=O)cc2)Cc2cc3ccccc3n2N1
Found: inactive

Lookup: What did the test return for O=C(O)C(Cc1ccccc1)Cc1ccccc1 ?
Found: inactive

Lookup: Which result was noted for this compound in the test: COc1cc([C@@H]2c3cc4c(cc3[C@@H](NCc3ccccc3)C3COC(=O)[C@@H]32)OCO4)cc(OC)c1O (stereo partly drawn)
Found: inactive

Lookup: Which outcome was entered for the compound O=C1C(=O)N(c2ccc(Cl)cc2Cl)C(=O)C(=O)C1c1nc2ccccc2s1 in this test?
Found: inactive

Lookup: Would you mind telling me which call this test gave Nc1c(C(=O)c2ccc(Cl)cc2)[nH]c(Nc2ccc(Cl)cc2)c1C(=S)Nc1ccccc1 ?
Found: inactive

Lookup: For Cc1c2cc[n+](C)cc2c(C)c2c1[nH]c1ccc(Cl)cc12 , which call appears in the assay record?
Found: inactive

Lookup: Lab log entry: Nc1ccn(C2OC(COC(=O)C34CC5CC(CC(C5)C3)C4)C(O)C2O)c(=O)n1 (stereo not drawn) — outcome as called in the assay?
Found: active

Lookup: Short answer needed: outcome of this test for Cc1cc(S(=O)(=O)Nc2nncn2-c2ccc(Cl)cc2)c(S)cc1Cl ?
Found: inactive

Lookup: // return assay outcome for CC(=O)NCCCCN(CCCNC(C)=O)C(=O)OCc1ccccc1
Found: inactive

Lookup: What call does the record list for Cc1ccc(/C=C/C(=O)c2sc(-n3nc(-c4ccccc4)cc3-c3ccccc3)nc2C)cc1 ?
Found: inactive

Lookup: So what was the verdict on CC12CCC(O)CC1CCC1C2CCC2(C)C(C(=O)CC(O)C(F)(F)F)CCC12 (stereo not drawn) in this test?
Found: inactive

Lookup: Tell me the recorded outcome of this test for CC(N)CC(=O)O (stereo not drawn) .
Found: inactive

Lookup: Please state the recorded outcome for this compound: O=c1cc(NNc2ccccc2)[nH]c(=O)[nH]1
Found: inactive
